Organism: Homo sapiens
Assay: Selectivity index, ratio of IC50 for human recombinant MAGL to IC50 for human recombinant FAAH

[
  {
    "SMILES STR": "CCOC(=O)c1cc(-c2cccc(OC(=O)NC3CCCCC3)c2)n(-c2ccccc2)n1",
    "Ratio IC50": 1840
  },
  {
    "SMILES STR": "CCOC(=O)c1cc(-c2cccc(OC(=O)NC3CCCCC3)c2)n(-c2ccc(C)cc2)n1",
    "Ratio IC50": 1190
  },
  {
    "SMILES STR": "COC(=O)c1cc(-c2cccc(OC(=O)NC3CCCCC3)c2)n(-c2ccccc2)n1",
    "Ratio IC50": 2750
  },
  {
    "SMILES STR": "CCCOC(=O)c1cc(-c2cccc(OC(=O)NC3CCCCC3)c2)n(-c2ccccc2)n1",
    "Ratio IC50": 1380
  },
  {
    "SMILES STR": "CCOC(=O)c1cc(-c2cccc(OC(=O)NC3CCCCC3)c2)n(-c2ccc(Cl)cc2)n1",
    "Ratio IC50": 4900
  }
]

# credit: ChEMBL document CHEMBL3421629
